# IC50 per entry
- Measured on: T1, Abeta42 beta amyloid peptide (UniProt P05067 672-713)
- T1 construct: domain: Abeta42 beta amyloid peptide; also called Aβ42; Aβ
- Method notes: competition ELISA, purified antibody 0.003-16 ug/ml against biotinylated 6E10 (chimeric mouse 6E10) on coated beta amyloid, n=2
Experimental readout: IC50 (µg/mL)

Binder | Endpoint value
Composite human antibody variant VH4/VK1 (antibody, human IgG1, V domains shown, Human IgG1/kappa (pANT15/pANT13), NS0 cells; also called VH4/YK1) VH: QVQLVQSGAEVKKPGASVKVSCTASGFNIKDTYIHWVRQARGQRLEWIGRFDPVNVNTRYDSRFRGRVTITSDASTNTAYMELSSLRSEDTAVYYCSRSYYNGRRRFTYWGQGTLVTVSS VL: DIVMTQSPDSLTVSLGERATINCKASQSLLSSGNQKNYLTWYQQKPGQPPKLLIYWASIRESGVPDRFTGSGSGTFFTLTISSLQAEDVAVYYCQNDYNYPFTFGQGTKLEIK | 4.1
mouse 6E10 anti-Aβ antibody (antibody, V domains shown, Murine monoclonal from hybridoma 6E10 (Covance); also called 6E10 mouse antibody) VH: EVQLQQSGAELVKPGASVKLSCTASGFNIKDTYIHWVKQRPEQGLEWIGRFDPVNVNTRYDSRFRGKATITSDASSNTAYLHLNSLTSEDTAVYYCSRSYYNGRRRFTYWGQGTLVTVSA VL: DIVMTQSPSSLTVTAGEKVALTCKASQSLLSSGNQKNYLTWYQQKPGQPPKLLIYWASIRESGVPDRFTGSGSGTFFTLTISSVQAEDLAVYYCQNDYNYPFTFGSGTKLEIK | 3.6
MDT-2007 (composite human antibody sequence variant VH4/VK2) (antibody, human IgG1, V domains shown, Human IgG1/kappa (pANT15/pANT13), NS0 cells) VH: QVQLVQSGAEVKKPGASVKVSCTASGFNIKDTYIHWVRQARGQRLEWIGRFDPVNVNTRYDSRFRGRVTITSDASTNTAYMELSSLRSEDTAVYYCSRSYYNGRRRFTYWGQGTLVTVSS VL: DIVMTQSPSSLTASVGDRVTITCKASQSLLSSGNQKNYLTWYQQKPGQPPKLLIYWASIRESGVPDRFTGSGSGTFFTLTISSLQAEDVAVYYCQNDYNYPFTFGQGTKLEIK | 2.1
Composite human antibody variant VH5/VK1 (antibody, human IgG1, V domains shown, Human IgG1/kappa (pANT15/pANT13), NS0 cells; also called VH5/YK1) VH: QVQLVQSGAEVKKPGASVKVSCTASGFNIKDTYIHWVRQARGQRLEWIGRFDPVNVNTRYDSRFRGRVTITSDASTSTAYMELSSLRSEDTAVYYCSRSYYNGRRRFTYWGQGTLVTVSS VL: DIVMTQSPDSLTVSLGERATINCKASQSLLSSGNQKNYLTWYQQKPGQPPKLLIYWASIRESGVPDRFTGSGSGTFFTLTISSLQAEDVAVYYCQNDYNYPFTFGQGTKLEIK | 3.3
